- MEASURED TARGET: hGLP-1R (Homo sapiens, UniProt P43220)
- Sequence (P43220 24-463): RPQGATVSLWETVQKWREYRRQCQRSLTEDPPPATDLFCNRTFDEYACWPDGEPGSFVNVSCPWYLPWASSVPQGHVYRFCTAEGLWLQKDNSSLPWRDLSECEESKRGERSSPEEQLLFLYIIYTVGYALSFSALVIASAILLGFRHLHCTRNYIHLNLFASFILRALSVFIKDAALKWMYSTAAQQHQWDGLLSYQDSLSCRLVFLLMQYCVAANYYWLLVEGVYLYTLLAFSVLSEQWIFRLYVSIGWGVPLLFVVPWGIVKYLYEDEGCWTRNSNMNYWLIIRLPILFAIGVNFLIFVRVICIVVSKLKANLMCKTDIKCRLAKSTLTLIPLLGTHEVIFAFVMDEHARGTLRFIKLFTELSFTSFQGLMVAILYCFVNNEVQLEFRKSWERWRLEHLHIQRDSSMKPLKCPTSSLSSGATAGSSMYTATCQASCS
- TEST: cell-based or functional assay
Non-standard residues stand in square brackets, D forms with d. No end group written: not given here. αMePhe(2-F) = C[C@](N)(Cc1ccccc1F)C(=O)O; Aib = CC(C)(N)C(=O)O
PROPERTY LABEL: cAMP Rel EC50 (1% HSA) (nM)

| BINDER | READING |
| --- | --- |
| YXQGTXTSDXXIXLDXKAQXXFIEXLQEGGPSSGEPPPEGTEE (acyl linker with epsilon-Lys; synthetic construct; SITE 2: note = 2-Aminoisobutyric Acid; SITE 6: note = alpha-methyl-2-fluoro-L-phenylalanine; SITE 10: note = 3-(4-Pyridyl)-L-alanine; SITE 11: note = alpha-methyl-L-serine; SITE 13: note = alpha-methyl-leucine; SITE 16: note = L-ornithine; SITE 17: note = Lysine is chemically mo) [Example 656] | 119 |
| YXQGTXTSDXXIXLDXKAQXXFIEYLIEGGPSSGEPPPSGT (synthetic construct; SITE 2: note = 2-Aminoisobutyric Acid; SITE 6: note = alpha-methyl-2-fluoro-L-phenylalanine; SITE 10: note = 3-(4-Pyridyl)-L-alanine; SITE 11: note = alpha-methyl-L-serine; SITE 13: note = alpha-methyl-leucine; SITE 16: note = L-ornithine; SITE 17: note = Lysine is chemically mo) [Example 502] | 30.6 |
| YXQGTXTSDXSILLDKKAQXAFIEYLEEGGPSSGAPPPEGTGE (synthetic construct; SITE 2: note = 2-Aminoisobutyric Acid; SITE 6: note = alpha-methyl-2-fluoro-L-phenylalanine; SITE 10: note = 3-(4-Pyridyl)-L-alanine; SITE 17: note = Lysine is chemically modified through conjugation of the epsilon-amino group of the Lysine side chain with (gamma-Glu)2-CO-(CH2)1) [Example 660] | 76.9 |
| YXQGTXTSDXXIXLDXKAQXXFIEXLQEGGPSSGEPPPEGTE (synthetic construct; SITE 2: note = 2-Aminoisobutyric Acid; SITE 6: note = alpha-methyl-2-fluoro-L-phenylalanine; SITE 10: note = 3-(4-Pyridyl)-L-alanine; SITE 11: note = alpha-methyl-L-serine; SITE 13: note = alpha-methyl-leucine; SITE 16: note = L-ornithine; SITE 17: note = Lysine is chemically mo) [Example 503] | 26.1 |
| YXQGTFTSDXSQXLDKKAQXAFIEYLIEXGPSSGAPPPSGSEE (non-natural residues, γGlu-C18 diacid acyl on K, C-terminal amide; synthetic construct; SITE 2: note = 2-Aminoisobutyric Acid; SITE 10: note = 3-(4-Pyridyl)-L-alanine; SITE 13: note = alpha-methyl-leucine; SITE 17: note = Lysine is chemically modified through conjugation of the epsilon-amino group of the Lysine side chain with (D-Glutamic acid)2-(gamma-Glu)-CO-(CH2)) [Example 929] | 593 |
| YXQGTXTSDXXIXLDXKAQXXFIEYLIEGGPSSGEPPPSGTGE (synthetic construct; SITE 2: note = 2-Aminoisobutyric Acid; SITE 6: note = alpha-methyl-2-fluoro-L-phenylalanine; SITE 10: note = 3-(4-Pyridyl)-L-alanine; SITE 11: note = alpha-methyl-L-serine; SITE 13: note = alpha-methyl-leucine; SITE 16: note = L-ornithine; SITE 17: note = Lysine is chemically mo) [Example 523] | 27.1 |
| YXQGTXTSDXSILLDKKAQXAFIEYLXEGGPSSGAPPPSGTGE (synthetic construct; SITE 2: note = 2-Aminoisobutyric Acid; SITE 6: note = alpha-methyl-2-fluoro-L-phenylalanine; SITE 10: note = 3-(4-Pyridyl)-L-alanine; SITE 17: note = Lysine is chemically modified through conjugation of the epsilon-amino group of the Lysine side chain with (gamma-Glu)2-CO-(CH2)1) [Example 661] | 50.9 |
| YXQGTXTSDXXIXLDXKAQXEFIQXLIEGGPSSGAPPPSGS (synthetic construct; SITE 2: note = 2-Aminoisobutyric Acid; SITE 6: note = alpha-methyl-2-fluoro-L-phenylalanine; SITE 10: note = 3-(4-Pyridyl)-L-alanine; SITE 11: note = alpha-methyl-L-serine; SITE 13: note = alpha-methyl-leucine; SITE 16: note = L-ornithine; SITE 17: note = Lysine is chemically mo) [Example 1202] | 23.1 |
| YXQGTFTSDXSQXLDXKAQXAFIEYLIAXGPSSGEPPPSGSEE (non-natural residues, C-terminal amide, acylated Lys with fatty diacid; synthetic construct; SITE 2: note = 2-Aminoisobutyric Acid; SITE 10: note = 3-(4-Pyridyl)-L-alanine; SITE 13: note = alpha-methyl-leucine; SITE 16: note = L-ornithine; SITE 17: note = Lysine is chemically modified through conjugation of the epsilon-amino group of the Lysine side chain with (2-[2-(2-) [Example 1095] | 159 |
| YXQGTXTSDXSILLDKKAQXAFIEYLEEGGPSSGAPPPEGTE (synthetic construct; SITE 2: note = 2-Aminoisobutyric Acid; SITE 6: note = alpha-methyl-2-fluoro-L-phenylalanine; SITE 10: note = 3-(4-Pyridyl)-L-alanine; SITE 17: note = Lysine is chemically modified through conjugation of the epsilon-amino group of the Lysine side chain with (gamma-Glu)2-CO-(CH2)1) [Example 659] | 81.5 |
| Y[Aib]QGT[αMePhe(2-F)]TSDYSILLDKQAQKAFIEYLLEGGPSSGEPPPSEG-NH2 (not fully specified (residue 20)) [Example 345] | 256 |
| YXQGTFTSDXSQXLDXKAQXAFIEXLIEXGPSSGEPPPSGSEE (non-natural residues, C18 diacid-(γGlu)2 acyl on K, C-terminal amide; synthetic construct; SITE 2: note = 2-Aminoisobutyric Acid; SITE 10: note = 3-(4-Pyridyl)-L-alanine; SITE 13: note = alpha-methyl-leucine; SITE 16: note = L-ornithine; SITE 17: note = Lysine is chemically modified through conjugation of the epsilon-amino group of the Lysine side chain with (gamma-Gl)) [Example 1093] | 141 |
